biological target: CDK2/Cyclin E1 full length (Homo sapiens (Human)); assay: CDK2/Cyclin E1 full length mobility shift assay
measurement kind: pKi
Note on units: pKi is unitless, being -log10 of a concentration expressed in mol/L.

compound="Cn1ncc(CC(=O)Nc2cc([C@H]3CC[C@@H](OC(=O)NC4(C)CCOC4)C3)[nH]n2)c1C(F)(F)F (single isomer, unassigned) [Example 495]" endpoint_result=8.75
compound="CCC(O)CNC(=O)O[C@@H]1CC[C@H](c2cc(NC(=O)Cc3cc(F)cc(F)c3)n[nH]2)C1 (single isomer, unassigned) [Example 543]" endpoint_result=8.71
compound=C[C@H]1CCC[C@H]1NC(=O)O[C@@H]1CC[C@H](c2cc(NC(=O)Cc3ccno3)n[nH]2)C1 endpoint_result=8.76

Next item in the queue.
For this compound ( CC(CC(F)(F)F)NC(=O)O[C@@H]1CC[C@H](c2cc(NC(=O)Cc3ccon3)n[nH]2)C1 (single isomer, unassigned) [Example 63] ), measured pKi is 8.90

###

biological target: GSK3β (H350L) (Homo sapiens (Human)); conditions: read-out: GSK3β Ki
Sequence (P49841 whole entry, stated change not applied): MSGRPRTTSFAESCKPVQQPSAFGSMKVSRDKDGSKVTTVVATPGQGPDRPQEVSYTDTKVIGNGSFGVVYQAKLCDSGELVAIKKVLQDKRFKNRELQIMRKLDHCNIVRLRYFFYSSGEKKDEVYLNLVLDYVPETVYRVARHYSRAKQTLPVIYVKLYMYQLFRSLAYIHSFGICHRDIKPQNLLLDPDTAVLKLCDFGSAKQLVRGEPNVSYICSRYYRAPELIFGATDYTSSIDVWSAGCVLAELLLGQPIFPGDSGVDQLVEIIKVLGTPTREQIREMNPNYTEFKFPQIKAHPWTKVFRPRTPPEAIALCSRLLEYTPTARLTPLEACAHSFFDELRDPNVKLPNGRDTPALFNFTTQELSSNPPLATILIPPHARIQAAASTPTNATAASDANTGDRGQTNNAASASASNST
measurement kind: Ki

Worked examples, 8 molecules total:
molecular_string=CC1(NC(=O)O[C@@H]2CC[C@H](c3cc(NC(=O)Cc4ccno4)n[nH]3)C2)CCCC1 system_tested="GSK3β (H350L) (Homo sapiens (Human))" measurement_kind=Ki endpoint_result="15.9 nM"
molecular_string=CCCNC(=O)O[C@H]1CC[C@@H](c2cc(NC(=O)Cc3cncs3)n[nH]2)C1 system_tested="GSK3β (H350L) (Homo sapiens (Human))" measurement_kind=Ki endpoint_result="27.9 nM"
molecular_string=COc1cccc(CC(=O)Nc2cc([C@H]3CC[C@@H](OC(=O)NC4(C)CC4)C3)[nH]n2)n1 system_tested="GSK3β (H350L) (Homo sapiens (Human))" measurement_kind=Ki endpoint_result="39.8 nM"
molecular_string=COc1ccc(CC(=O)Nc2cc([C@H]3CC[C@@H](OC(=O)N4C[C@@H](OC)[C@@H]4C)C3)[nH]n2)cn1 system_tested="GSK3β (H350L) (Homo sapiens (Human))" measurement_kind=Ki endpoint_result="2.77 nM"
molecular_string=CCCNC(=O)O[C@@H]1CC[C@H](c2cc(NC(=O)Cc3ccc(OC)cc3S(C)(=O)=O)n[nH]2)C1 system_tested="GSK3β (H350L) (Homo sapiens (Human))" measurement_kind=Ki endpoint_result="77.2 nM"
molecular_string=CC[C@@H](C)NC(=O)O[C@@H]1CC[C@H](c2cc(NC(=O)Cc3ccno3)n[nH]2)C1 system_tested="GSK3β (H350L) (Homo sapiens (Human))" measurement_kind=Ki endpoint_result="81.2 nM"
molecular_string=CCCNC(=O)O[C@H]1CC[C@@H](c2cc(NC(=O)Cc3ccc(OCCN)cc3)n[nH]2)C1 system_tested="GSK3β (H350L) (Homo sapiens (Human))" measurement_kind=Ki endpoint_result="52.1 nM"
molecular_string=CC[C@H](C)NC(=O)O[C@H]1CC[C@@H](c2cc(NC(=O)Cc3ccno3)n[nH]2)C1 system_tested="GSK3β (H350L) (Homo sapiens (Human))" measurement_kind=Ki endpoint_result="20.6 nM"

For this molecule ( `CCCNC(=O)O[C@@H]1CC[C@H](c2cc(NC(=O)c3ccc(C)nc3C)n[nH]2)C1` ), measured Ki is > 191 nM

For this molecule ( `COc1ccc(CC(=O)Nc2cc([C@H]3CC[C@@H](OC(=O)NCC(F)F)C3)[nH]n2)cc1` ), measured Ki is 27.4 nM

For this molecule ( `CCCNC(=O)O[C@H]1CC[C@@H](c2cc(NC(=O)c3cc(C)nn3C)n[nH]2)C1` ), measured Ki is 102 nM

For this molecule ( `Cc1cnc(CC(=O)Nc2cc([C@H]3CC[C@@H](OC(=O)NC4(C)CC4)C3)[nH]n2)cn1` ), measured Ki is 30.1 nM

Hey, just so you know, these numbers are from patent US11014911B2.
